Literature IC50 values, system: Histone deacetylase 5 (Homo sapiens).
Sequence (Q9UQL6 whole entry): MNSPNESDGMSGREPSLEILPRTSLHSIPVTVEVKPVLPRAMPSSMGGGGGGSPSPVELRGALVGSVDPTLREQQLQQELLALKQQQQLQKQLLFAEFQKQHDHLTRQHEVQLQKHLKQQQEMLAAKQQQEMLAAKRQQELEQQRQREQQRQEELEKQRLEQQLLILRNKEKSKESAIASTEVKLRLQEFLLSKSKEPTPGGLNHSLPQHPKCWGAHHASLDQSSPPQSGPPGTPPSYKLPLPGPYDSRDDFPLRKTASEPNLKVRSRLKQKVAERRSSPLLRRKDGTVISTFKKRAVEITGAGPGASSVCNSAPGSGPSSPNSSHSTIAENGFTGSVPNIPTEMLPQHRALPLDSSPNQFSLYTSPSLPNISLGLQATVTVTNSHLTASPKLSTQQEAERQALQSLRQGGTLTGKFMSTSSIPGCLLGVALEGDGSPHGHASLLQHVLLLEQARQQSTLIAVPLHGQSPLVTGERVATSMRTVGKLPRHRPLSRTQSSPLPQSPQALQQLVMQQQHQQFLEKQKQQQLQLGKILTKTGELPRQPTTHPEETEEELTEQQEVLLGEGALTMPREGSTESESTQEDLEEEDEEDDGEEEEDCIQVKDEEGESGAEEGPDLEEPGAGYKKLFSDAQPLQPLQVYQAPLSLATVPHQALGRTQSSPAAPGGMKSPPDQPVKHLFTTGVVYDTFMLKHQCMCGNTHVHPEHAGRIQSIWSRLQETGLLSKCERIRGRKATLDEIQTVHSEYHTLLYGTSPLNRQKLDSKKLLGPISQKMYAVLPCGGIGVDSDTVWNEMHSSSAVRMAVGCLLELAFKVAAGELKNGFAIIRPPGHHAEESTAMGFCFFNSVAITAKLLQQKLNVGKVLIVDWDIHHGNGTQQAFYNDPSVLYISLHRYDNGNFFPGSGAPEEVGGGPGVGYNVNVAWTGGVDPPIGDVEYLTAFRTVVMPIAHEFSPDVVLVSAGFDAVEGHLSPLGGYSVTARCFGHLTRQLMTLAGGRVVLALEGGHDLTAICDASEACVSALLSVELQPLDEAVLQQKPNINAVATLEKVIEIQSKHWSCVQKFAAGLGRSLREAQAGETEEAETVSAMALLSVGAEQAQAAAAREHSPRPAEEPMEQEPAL

Q) What IC50 appears in the records for this molecule with Histone deacetylase 5 (Homo sapiens)? O=C(CCCCCCn1c2cc3c(cc2c2ncc4ccccc4c21)OCO3)NO
A) > 5 µM

Q) What measured IC50 is associated with O=C(NO)c1ccc(CNC(=O)[C@@H]2Cc3c([nH]c4ccccc34)[C@@H](c3ccc(Cl)cc3)N2CC2CC2)cc1 on Histone deacetylase 5 (Homo sapiens)?
A) > 10 µM

Q) Lab note: need IC50 for O=C(CCCCCCNC(=O)c1cc2cc(-c3cn[nH]c3)ccc2s1)NO on Histone deacetylase 5 (Homo sapiens), anyone have it?
A) > 10 µM
